These measurements were taken from PubChem BioAssay (NCI).

# Test system: BT-549 breast
# Assay overview: NCI tumour cell line growth inhibition, 48 h; in the data active = GI50 below about 0.43 µM; inactive = the rest
Classes used: active, inactive

Compound: Cc1cccc2c3c(sc12)C(c1ccc(F)cc1)C(C#N)=C(N)O3 (stereo unspecified)
Label: active
//
Compound: COc1cc2c(c(OC)c1OC)-c1ccc(N=NC(N)=S)c(=O)cc1[C@@H](NC(C)=O)CC2
Label: inactive
//
Compound: N#CC(C#N)=C/C=C(\Sc1ccc(F)cc1Cl)c1ccc(Cl)cc1
Label: inactive
//
Compound: O=Cc1ccc(-c2ccc(-c3nc4ccccc4s3)cc2)s1
Label: inactive
//
Compound: O=C1CC/C(=C/COc2cc(=O)oc3ccccc23)O1
Label: inactive
//
Compound: CN(C)c1ccc(/C=N/S(=O)(=O)c2ccc(-n3c(-c4ccccc4)nc4c(Br)cc(Br)cc4c3=O)cc2)cc1
Label: inactive
//
Compound: CC(=O)O[C@H]1CC[C@@]2(C)C(=C/C(=N/OCCN3CCCC3)[C@H]3[C@@H]4CC[C@H](OC(C)=O)[C@@]4(C)CC[C@@H]32)C1
Label: inactive
//
Compound: Cn1cc(C2=C(Nc3ccccc3)C(=O)NC2=O)c2ccccc21
Label: inactive
//
Compound: CC1SC2(CCCCC2)N(NC(=O)c2[nH]c3ccc(Br)cc3c2-c2ccccc2)C1=O (stereo unspecified)
Label: inactive
//
Compound: COc1ccc(-c2csc(NC(=O)CN3CCN(c4cc5c(cc4F)c(=O)c(C(=O)O)cn5C4CC4)CC3)n2)cc1
Label: inactive
//
Compound: Cc1[nH]c2cc(F)ccc2c1-c1nc2c3cccnc3c3ncccc3c2[nH]1
Label: active

###

Here, each record is paired with measured GI50 data.
# System: 786-0 renal
# Assay overview: NCI tumour cell line growth inhibition, 48 h
Attribute measured: GI50

Compound: CC(=O)/C=C/c1ccc(OCc2ccc(Cl)cc2)cc1
Attribute measured: GI50
Measurement: 718 µM

Compound: CCCCNc1ccc(Nc2ccccc2)cc1
Attribute measured: GI50
Measurement: 10.4 µM

Compound: O=[N+]([O-])c1cc([N+](=O)[O-])c(Cl)cc1Cl
Attribute measured: GI50
Measurement: 1.71 µM

Compound: Nc1nc(N)c2nc3c(nc2n1)CCCCCCCCCC3
Attribute measured: GI50
Measurement: 0.675 µM

Compound: COc1cc(C)c2sc3ccccc3c(=O)c2c1NCCN(C)C
Attribute measured: GI50
Measurement: 8.34 µM

Compound: COCCOCCOCc1n(Cc2ccc3ccccc3n2)c2ccccc2[n+]1Cc1ccc2ccccc2n1
Attribute measured: GI50
Measurement: 3.74 µM

Compound: Cc1cc(O)c(C2=NN(c3ccc(S(N)(=O)=O)cc3)C(/C=C/c3ccccc3)C2)cc1Cl (stereo not drawn)
Attribute measured: GI50
Measurement: 4.09 µM

Compound: CN(CCCCCl)P(=O)(OCc1ccc([N+](=O)[O-])o1)OCC1OC(n2cnc([N+](=O)[O-])c2N)C(O)C1O (stereo not drawn)
Attribute measured: GI50
Measurement: > 100 µM

Compound: Cn1cc(C2=C(Nc3ccccc3)C(=O)NC2=O)c2ccccc21
Attribute measured: GI50
Measurement: > 25 µM

Compound: Cc1ccc(-n2nnnc2-c2cnc(N3CCOCC3)nc2-c2cccc(C(F)(F)F)c2)cc1
Attribute measured: GI50
Measurement: 1.89 µM

Compound: COc1ccc(C(=O)c2sc3nc(-c4cccs4)ccc3c2N)cc1OC
Attribute measured: GI50
Measurement: 62.4 µM

Compound: Cc1nc2ccccc2nc1N=Nc1ccccc1
Attribute measured: GI50
Measurement: 26.9 µM

Compound: CCSC[C@@H]1C[C@](O)(c2ccc(F)cc2)[C@@H](c2ccc(F)cc2)O1
Attribute measured: GI50
Measurement: 16.4 µM
